These data points were gathered from the supplement of paper PMC12042874.

Method notes: amyloid nucleation score (Sup35N fusion, yeast selection) (log enrichment); library NNK2; higher = more nucleation; inactive = no reads after selection;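 further: zero at mode of non-aggregating sequences after 7 days selection at 30°C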
criterion met means recorded amyloid nucleation score is 0.06 or above; criterion not met means it is below 0.06.

QUERY: amyloid nucleation score >= 0.06 for `KMLPSGARDLMPMDLLDFMM` ?
RESULT: criterion not met

QUERY: Also need `RSTLDQRRFGNRF` , thanks.
RESULT: criterion met

QUERY: Request: `ILANFFCGDRNCL`
RESULT: criterion met

QUERY: Entry `FMQGPFNYTRMLSL` please
RESULT: criterion not met

QUERY: One more substance: `NTGFTLMGCWPMYYCWSFSW`
RESULT: criterion not met

QUERY: Also, `SLNVVMGAD` please.
RESULT: criterion not met

QUERY: # repeat for `CMLCARLHH`
RESULT: criterion met

QUERY: Entry `ALCRGW` please
RESULT: criterion not met

QUERY: Now the substance `VCFRYGEYLNVKIF`
RESULT: criterion not met

QUERY: And `SQSNMILYWADRF` ?
RESULT: criterion met

QUERY: How about this substance: `QHFDLVATGMGYSWAMLYFA`
RESULT: criterion met

QUERY: Try `TWGVLFAYSIEDCVGINYLG` next.
RESULT: criterion met

QUERY: Proceed to `ALRISQFCIL`
RESULT: criterion not met

QUERY: // query: `LIFRAVWVVMSHHLTG`
RESULT: criterion not met

QUERY: Repeat for the following substance: `MVMANHRSYRY`
RESULT: criterion met

QUERY: Okay, and `RRSNLGNWFDV` ?
RESULT: criterion met

QUERY: Next up: `LGSDMRLRMTYCPKRCVRWH`
RESULT: criterion met

QUERY: Record: `EYVADHGQIADGR`
RESULT: criterion met
